Target: Full-length glucokinase (beta cell isoform) (Homo sapiens)
Construct: Full-length glucokinase (beta cell isoform) was His-tagged at N-terminus; His tag (N); made in house
Sequence (P35557 1-465): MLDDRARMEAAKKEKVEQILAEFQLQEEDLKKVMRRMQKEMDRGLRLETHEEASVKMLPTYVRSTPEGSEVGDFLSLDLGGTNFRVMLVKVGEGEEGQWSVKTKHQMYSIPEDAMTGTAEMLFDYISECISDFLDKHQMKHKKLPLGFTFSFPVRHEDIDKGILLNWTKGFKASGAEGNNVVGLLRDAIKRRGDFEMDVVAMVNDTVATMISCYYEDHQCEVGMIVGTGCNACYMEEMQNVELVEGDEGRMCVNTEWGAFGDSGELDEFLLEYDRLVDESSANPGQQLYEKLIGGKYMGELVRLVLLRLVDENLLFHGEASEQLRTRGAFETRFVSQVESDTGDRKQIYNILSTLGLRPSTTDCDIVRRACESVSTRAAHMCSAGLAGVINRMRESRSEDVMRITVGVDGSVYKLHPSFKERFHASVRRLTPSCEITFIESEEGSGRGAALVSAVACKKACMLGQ
Experiment: Glucokinase biochemical assay (PK/LDH-coupled, NADH depletion at 340 nm): % activation, EC50, % max activation
Conditions: 5 mM glucose; GK activation; read-out: EC50
pEC50: −log10 of the molar value.
READOUT: pEC50

// worked examples, pEC50 included
COMPOUND: CN(C)C(=O)c1ccc(Oc2cc(C(=O)Nc3cnccn3)cc3c2CC(C)(C)O3)cc1
RESULT: 6.33
//
COMPOUND: CN(C)C(=O)c1ccc(Oc2cc(C(=O)Nc3ccon3)cc3c2CC(C)(C)O3)cc1F
RESULT: 6.57
//
COMPOUND: Cn1ncc(NC(=O)c2cc(OC3CN(S(C)(=O)=O)C3)c3c(c2)OC(C)(C)C3)n1
RESULT: 5.30
//
COMPOUND: Cc1cc2c(Oc3ccc(S(C)(=O)=O)cc3)cc(C(=O)Nc3ccc(CO)cn3)cc2o1
RESULT: 6.00

[1] CC1(C)Cc2c(Oc3ccc(S(C)(=O)=O)cc3)cc(C(=O)Nc3ccon3)cc2O1
[2] Cc1cc2c(Oc3ccc(S(C)(=O)=O)cc3)cc(C(=O)Nc3cnc(N(C)C)cn3)cc2o1
[3] CC(Oc1cc(C(=O)Nc2ccn(C)n2)cc2c1CC(C)(C)O2)c1ccncn1 (stereo not shown)
q: Hey, quick one: sort these by pEC50, low to high? Reply with the item labels sorted in the order that was asked for.
a: 3, 2, 1
(3: 5.32, 2: 6.11, 1: 6.40)

[I] COCC1(C)Cc2c(Oc3ccc(S(=O)(=O)C4CC4)cc3)cc(C(=O)Nc3cnn(C)n3)cc2O1 (single isomer, unassigned; (+)) [Example 250]
[II] COc1cnc(NC(=O)c2cc(Oc3ccc(S(C)(=O)=O)cn3)c3cc(C)oc3c2)cn1
q: Kindly identify which of I and II has the larger recorded pEC50 value. Refer to your chosen item by its label in the answer.
a: I
(I: 6.38, II: 5.26)

[I] CN(C)C1CN(C(=O)c2ccc(Oc3cc(C(=O)Nc4ccn(C)n4)cc4c3CC(C)(C)O4)cc2)C1
[II] Cn1ccc(NC(=O)c2cc(Oc3ccc(C(=O)N4CCC4)cc3)c3c(c2F)OC(C)(C)C3)n1
q: Of I and II , which shows the smaller pEC50 value? Mark your selection by writing its label.
a: II
(II: 5.77, I: 6.34)

[P] Cn1ncc(NC(=O)c2cc(Oc3ccc(C(=O)N4CCC4)cc3)c3c(c2)OC(C)(C)C3)n1
[Q] COCC1(C)Cc2c(Oc3ccc(S(C)(=O)=O)cc3)cc(C(=O)Nc3ccn(C)n3)cc2O1 (stereo not shown)
q: Exercise: compare P and Q ; which one has the greater pEC50? Provide the label of your selected option as the answer.
a: P
(P: 6.89, Q: 6.30)
